Numbers sourced from patent US12059422B2.

Target: PI3K delta (Homo sapiens, UniProt O00329)
Construct: purchased Millipore, Billerica, MA, USA
Sequence (O00329 whole entry, species assumed): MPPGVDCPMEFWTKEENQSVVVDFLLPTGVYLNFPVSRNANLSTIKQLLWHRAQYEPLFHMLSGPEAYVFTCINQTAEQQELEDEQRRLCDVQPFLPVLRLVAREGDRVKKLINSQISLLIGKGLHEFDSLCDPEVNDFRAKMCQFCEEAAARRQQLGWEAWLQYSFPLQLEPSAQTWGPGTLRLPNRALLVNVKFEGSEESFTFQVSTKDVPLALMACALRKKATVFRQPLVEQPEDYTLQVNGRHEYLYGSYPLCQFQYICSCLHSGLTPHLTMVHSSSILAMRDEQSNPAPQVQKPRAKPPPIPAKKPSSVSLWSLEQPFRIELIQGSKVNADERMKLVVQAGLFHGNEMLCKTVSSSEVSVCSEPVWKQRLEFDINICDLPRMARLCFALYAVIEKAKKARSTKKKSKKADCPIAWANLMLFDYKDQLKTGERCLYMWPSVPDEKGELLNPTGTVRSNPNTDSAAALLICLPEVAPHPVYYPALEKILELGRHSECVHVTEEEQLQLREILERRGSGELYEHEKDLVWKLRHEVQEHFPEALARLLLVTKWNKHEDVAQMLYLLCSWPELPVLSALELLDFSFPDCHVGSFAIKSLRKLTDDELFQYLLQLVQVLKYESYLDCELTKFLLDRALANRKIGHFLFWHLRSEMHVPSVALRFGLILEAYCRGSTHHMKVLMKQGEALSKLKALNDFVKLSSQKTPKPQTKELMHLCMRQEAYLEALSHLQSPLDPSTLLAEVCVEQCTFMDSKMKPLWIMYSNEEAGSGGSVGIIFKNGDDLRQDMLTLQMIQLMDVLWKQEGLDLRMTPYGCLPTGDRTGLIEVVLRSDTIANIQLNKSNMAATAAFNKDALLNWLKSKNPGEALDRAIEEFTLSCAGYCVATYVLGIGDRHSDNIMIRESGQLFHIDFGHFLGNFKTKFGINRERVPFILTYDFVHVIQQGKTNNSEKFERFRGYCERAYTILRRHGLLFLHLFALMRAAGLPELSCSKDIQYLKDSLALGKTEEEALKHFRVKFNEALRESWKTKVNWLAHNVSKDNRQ
Sequence (P27986 whole entry partner, species assumed): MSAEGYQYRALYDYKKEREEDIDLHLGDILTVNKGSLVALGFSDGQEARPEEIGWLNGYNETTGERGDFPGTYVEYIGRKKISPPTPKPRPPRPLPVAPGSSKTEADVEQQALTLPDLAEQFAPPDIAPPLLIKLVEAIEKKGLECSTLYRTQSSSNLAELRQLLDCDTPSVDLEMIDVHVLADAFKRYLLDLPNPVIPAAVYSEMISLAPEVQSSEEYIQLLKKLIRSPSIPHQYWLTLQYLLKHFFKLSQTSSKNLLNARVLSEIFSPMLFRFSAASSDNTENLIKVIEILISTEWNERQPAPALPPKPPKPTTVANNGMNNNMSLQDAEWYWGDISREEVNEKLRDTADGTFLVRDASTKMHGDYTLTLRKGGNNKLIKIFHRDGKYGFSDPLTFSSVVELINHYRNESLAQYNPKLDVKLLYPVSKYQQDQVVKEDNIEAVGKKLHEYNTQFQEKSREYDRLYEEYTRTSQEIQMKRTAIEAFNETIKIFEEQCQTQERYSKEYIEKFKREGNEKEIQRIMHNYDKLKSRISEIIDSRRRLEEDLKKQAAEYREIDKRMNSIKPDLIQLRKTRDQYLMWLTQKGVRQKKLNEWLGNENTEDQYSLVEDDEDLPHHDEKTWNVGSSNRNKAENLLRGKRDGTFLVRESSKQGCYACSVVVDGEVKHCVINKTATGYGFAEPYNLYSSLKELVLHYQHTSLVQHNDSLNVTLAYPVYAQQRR
Assay: Luciferase-based luminescence assay (KinaseGlo), PI3K delta enzymatic activity
Assay type: biochemical
Settings: ratio of enzymatic IC50 against PI3Kα over IC50 against PI3Kδ
Description: PI3K catalyzes the conversion of phosphatidylinositol-4,5-bisphosphate (PIP2) and ATP to phosphatidylinositol-3,4,5-trisphosphate (PIP3) and ADP. […] PI3K alpha and PI3K delta enzymatic activity was determined by measuring the amount of ATP consumed following the kinase reaction using a luciferase-based luminescence assay (KinaseGlo®, Promega Corp., Madison, WI, USA). […] IC50 values were determined by curve fitting using Graphpad Prism software (Graphpad Software, La Jolla, CA, USA).
measured_property: α/δ ratio

Take a look at these entries with their results.
COc1cc(-c2ccccc2CC(C)(C)Nc2nc(N3CCOCC3)nc(-n3c(C(F)F)nc4ccccc43)n2)ccn1 ... A’
CCN1CCC(c2ccccc2CC(C)(C)Nc2nc(N3CCOCC3)nc(-n3c(C(F)F)nc4ccccc43)n2)CC1 ... A’
CC(C)(Cc1ccccc1-c1cncnc1)Nc1nc(N2CCOCC2)nc(-n2c(C(F)F)nc3ccccc32)n1 ... A’
FC(F)c1nc2ccccc2n1-c1nc(NCc2ccccc2)nc(N2CCOCC2)n1 [Ref 1, reference compound] ... D’
CC[C@@H](Nc1nc(N2CCOCC2)nc(-n2c(C(F)F)nc3ccccc32)n1)c1ccccc1 ... B’
Cc1cc(-c2ccccc2CC(C)(C)Nc2nc(N3CCOCC3)nc(-n3c(C(F)F)nc4ccccc43)n2)ccn1 ... A’

Tell me the measured α/δ ratio of COc1cccc(CC(C)(C)Nc2nc(N3CCOCC3)nc(-n3c(C(F)F)nc4ccccc43)n2)c1 , please. A’

Next compound up: CC(C)(Cc1ccccc1-c1cn[nH]c1)Nc1nc(N2CCOCC2)nc(-n2c(C(F)F)nc3ccccc32)n1 A’

Next compound up: CC(C)(Cc1ccc(F)cc1)Nc1nc(N2CCOCC2)nc(-n2c(C(F)F)nc3ccccc32)n1 A’

Next compound up: COc1ccc(C(C)(C)Nc2nc(N3CCOCC3)nc(-n3c(C(F)F)nc4ccccc43)n2)cc1 D’
